Sourced from patent EP4613859A1

# tested-on: human MyD88 (human) (UniProt Q99836)
# protocol-text: P3 phage display panning on plate-immobilised MyD88, after round 4, NGS
measure-name: Population (%)

Worked cases, Population given:
PEKDNGGENAFINNIV
0.73
SENYATSPWALDELVL
1.89
AVDKETDKIQTPLKNA
1.39
KNLFNELVSKNIRTFM
2.49
ESILNQLRRSSQSIAN
0.58

I. NGHESEIIKEIVDTIV
II. GFLYQAFAREGFKIFM
Req: Sort I and II by Population descending and give the first. Please indicate the selected item by its label.
Resp: I
(I: 1.23%, II: 0.75%)
